Test system: A549
Assay: NCI tumour cell line growth inhibition, 48 h
Calls of active or inactive are those of the source. Rule as the data show it: active = GI50 up to about 1.1 µM and inactive = higher.
The entries below come with measured GI50 values attached.
experimentalReadout: GI50

molecule: CCCc1[nH]nc(C(N)=O)c1/N=N/N(C)C
val: 42.4 µM (inactive)
--
molecule: ClC(Cl)(Cl)C1=N[C@H]2[C@H](Br)[C@@H]3O[C@@H](c4ccccc4)[C@H](c4ccccc4)O[C@@H]3[C@H]2O1
val: 21.5 µM (inactive)
--
molecule: c1ccc2c(c1)NC1(N3CCCCC3)CCCCC21 (stereo unspecified)
val: 30.5 µM (inactive)
--
molecule: O=C(Nn1cc(F)c(=O)[nH]c1=O)C12CC3CC(CC(C3)C1)C2
val: 6.27 µM (inactive)
--
molecule: CCC(CON(C)c1ccccc1)(SC)SC
val: > 100 µM (inactive)
--
molecule: c1ccc(C(Oc2noc3ccccc23)c2ccccc2)cc1
val: 39.5 µM (inactive)
--
molecule: NC(=O)C1Cc2cc3c(cc21)OCO3 (stereo unspecified)
val: > 100 µM (inactive)
--
molecule: C[n+]1c2ccccc2n2c3ccccc3c(NCCCn3ccnc3)c(C#N)c21
val: 3.92 µM (inactive)
--
molecule: CC(=O)OC[C@H]1[C@@H]2C(CC[C@]13CO3)OC(=O)CC(C)[C@]2(C)CCc1ccoc1 (stereo partly specified)
val: > 100 µM (inactive)
--
molecule: c1ccc(CNC2CC(NCc3ccccn3)CC(NCc3ccccn3)C2)nc1 (stereo unspecified)
val: 2.61 µM (inactive)
--
molecule: O=C(CCl)N1CCN(c2ccccn2)CC1
val: > 10 µM (inactive)
--
molecule: N#CC1(C#N)N[C@@H](c2ccsc2)[C@H]2C(=O)N(c3ccccc3)C(=O)[C@H]21
val: > 100 µM (inactive)
--
molecule: NC(N)=NCc1ccc2c(c1)OCO2
val: > 100 µM (inactive)
--
molecule: OCC(Cn1cncn1)(c1ccc(F)cc1F)n1cncn1 (stereo unspecified)
val: > 100 µM (inactive)
--
molecule: NS(=O)(=O)c1ccc(NC(=O)c2cccn3c(=O)c4ccccc4nc23)cc1
val: > 100 µM (inactive)
--
molecule: COc1ccc(C2S/C(=C\c3cccc(O)c3)C(=O)N2NC(=O)Cc2ccccc2)cc1 (stereo unspecified)
val: > 100 µM (inactive)
--
molecule: CCC(=O)C(CCN1CCC2(CCCc3ccccc32)CC1)(c1ccccc1)c1ccccc1
val: 3.63 µM (inactive)
--
molecule: CC12O[C@H](c3ccccc3)[C@H](c3ccccc3)N1C(=O)C1(C(=O)OCc3ccccc3)CC12 (stereo partly specified)
val: 22.3 µM (inactive)
--
molecule: O=C1OC(=O)C(=C\c2ccc3c(c2)OCO3)/C1=C/c1ccc2c(c1)OCO2
val: 37.9 µM (inactive)
--
molecule: O=C(C[n+]1ccccc1)N/N=C(/CCC(=O)N(Cc1ccccc1)Cc1ccccc1)CC(=O)c1ccccc1
val: > 100 µM (inactive)
--
molecule: CCOc1ccc2c(c1)c(CC(=O)O)cn2C
val: > 100 µM (inactive)
